Values were extracted from patent US20190085024A1.

Target: Calpain
Experiment: Calpain enzyme assay
Details: Ki by Morrison equation; pH 7.5, 5 mM CaCl2

COMPOUND	Ki
CCC(C)C(NC(=O)C(CC(C)(C)C)NC(=O)Cc1ccccc1)C(=O)C(=O)NCC(=O)NC(Cc1ccc2ccccc2c1)C(N)=O (stereo not shown) [PHELIX331]	9.26 nM
CCC(C)C(NC(=O)C(CC(C)C)NC(=O)NCc1ccccc1)C(=O)C(=O)NCC(=O)NC(Cc1ccc2ccccc2c1)C(N)=O (stereo not shown) [PHELIX334]	0.67 nM
CCC(C)C(NC(=O)C(CC(C)C)NC(=O)OCc1ccccc1)C(=O)C(=O)NC(CC(N)=O)Cc1ccccc1 (stereo not shown) [PHELIX326]	702 nM
CC(C)CC(NC(=O)OCc1ccccc1)C(=O)NC(C)C(=O)C(=O)NC(Cc1ccncc1)C(N)=O (stereo not shown) [PHELIX198]	22 nM

###

Molecular target: Calpain
Assay: Calpain enzyme assay
Conditions: Ki by Morrison equation; pH 7.5, 5 mM CaCl2
pKi: −log10 of the molar value. *1 amine or outer side, *2 acyl side, *3 side chain or, on linkers, in order; H or OH if unused. Where a SMILES comes first, the peptide text is derived from it. [ ]: non-standard residue; d: D form. The star is where a group is joined. 2Nal = N[CH](Cc1ccc2ccccc2c1)C(=O)O; X1 = CCC(C)C(N[*:1])C(=O)C(=O)[*:2]; Cbz = O=C(OCc1ccccc1)*
Some compounds, each annotated with its measured pKi.
PARAMETER_MEASURED: pKi

COMPOUND	TEST_TARGET	RELATIONAL_OPERATOR	OBSERVED
CC(NC(=O)C(Cc1ccccc1)NC(=O)Cc1ccccc1)C(=O)C(=O)NC(Cc1ccccc1)C(=O)NC(C)(C)C(N)=O (stereo not shown)	Calpain	<	5.00
CCC(C)C(NC(=O)C(Cc1ccccc1)NC(=O)Cc1ccccc1)C(=O)C(=O)NCC(=O)NC(Cc1ccc2ccccc2c1)C(N)=O (stereo not shown)	Calpain	=	7.08
CC(NC(=O)C(Cc1cccc2ccccc12)NC(=O)Cc1ccccc1)C(=O)C(=O)NC(Cc1ccccc1)C(=O)NC(C)(C)C(N)=O (stereo not shown)	Calpain	=	4.90
C=CCOCC(NC(=O)C(=O)C(COCC=C)NC(=O)C(CC(C)C)NC(=O)OCc1ccccc1)C(=O)NC(Cc1ccc2ccccc2c1)C(N)=O (stereo not shown)	Calpain	=	7.60
CCC(C)C(NC(=O)C(=O)C(C)NC(=O)CCNC(=O)OCc1ccccc1)C(=O)NC(C)(C)C(=O)O (stereo not shown)	Calpain	<	4.00
CCC(C)C(NC(=O)C(CC(C)C)NC(=O)CN1CCOCC1)C(=O)C(=O)NCC(=O)N(C)C(Cc1ccccc1)C(N)=O (stereo not shown)	Calpain	=	8.71
CCC(C)C(NC(=O)C(CC(C)C)NC(=O)OCc1ccccc1)C(=O)C(=O)NCC(=O)NC(Cc1cccnc1)C(N)=O (stereo not shown)	Calpain	=	8.04
CC(C)CC(NC(=O)C(=O)C(C)NC(=O)C(Cc1ccccc1)NC(=O)Cc1ccccc1)C(=O)NC(C)(C)C(N)=O (stereo not shown)	Calpain	=	4.07
CCC(C)C(NC(=O)C(CC(C)C)NC(=O)OCc1ccccc1)C(=O)C(=O)NC(CC#N)C(=O)NC(Cc1ccc2ccccc2c1)C(N)=O (stereo not shown)	Calpain	=	7.47
CCC(C)C(C(=O)C(=O)NCC(=O)NC(Cc1ccc2ccccc2c1)C(N)=O)N(C)C(=O)C(CC(C)C)NC(=O)OCc1ccccc1 (stereo not shown) [PHELIX306]	Calpain	=	6.35
CCC(C)C(C(=O)C(=O)NCC(=O)NC(Cc1ccc2ccccc2c1)C(N)=O)N(C)C(=O)C(CC(C)C)NC(=O)OCc1ccccc1 (stereo not shown) [PHELIX305]	Calpain	=	5.02
CC(C)CC(NC(=O)OCc1ccccc1)C(=O)NC(Cc1ccccc1)C(=O)C(=O)NCC(=O)NC(Cc1ccc2ccccc2c1)C(N)=O (stereo not shown)	Calpain	=	7.91
CC(NC(=O)C(Cc1ccccc1)NC(=O)Cc1ccccc1)C(=O)C(=O)NC(Cc1ccccc1)C(=O)NC(Cc1ccc2ccccc2c1)C(N)=O (stereo not shown) [PHELIX216]	Calpain	<	4.00
CC(NC(=O)C(Cc1ccccc1)NC(=O)Cc1ccccc1)C(=O)C(=O)NC(Cc1ccccc1)C(=O)NC(Cc1ccc(C(C)(C)C)cc1)C(N)=O (stereo not shown)	Calpain	<	5.00
CC(NC(=O)C(Cc1ccccc1)NC(=O)Cc1ccccc1)C(=O)C(=O)NC(Cc1cccc(C(F)(F)F)c1)C(=O)NC(Cc1ccc(-c2ccccc2)cc1)C(N)=O (stereo not shown)	Calpain	<	5.00
CCC(C)C(NC(=O)C(CC(C)C)NC(=O)C(Cc1ccccc1)NC(=O)OCc1ccccc1)C(=O)C(=O)NCC(=O)NC(Cc1ccc2ccccc2c1)C(N)=O (stereo not shown) [PHELIX270] (Cbz-FL[X1]G[2Nal]-NH2; configuration not given here)	Calpain	=	9.28
CC(NC(=O)C(Cc1ccccc1F)NC(=O)Cc1ccccc1)C(=O)C(=O)NC(Cc1ccccc1)C(=O)NC(C)(C)C(N)=O (stereo not shown)	Calpain	<	5.00
CCC(C)C(NC(=O)C(CC(C)C)NC(=O)C(Cc1ccccc1)NC(=O)OCc1ccccc1)C(=O)C(=O)NC(CCCNC(=N)N)C(N)=O (stereo not shown) [PHELIX268]	Calpain	=	7.98
CC(NC(=O)C(Cc1ccccc1)NC(=O)Cc1ccccc1)C(=O)C(=O)NC(Cc1cccc(F)c1)C(=O)NC(Cc1ccc(-c2ccccc2)cc1)C(N)=O (stereo not shown)	Calpain	<	5.00
CCC(C)C(NC(=O)C(CC(C)C)NC(=O)OCc1ccccc1)C(=O)C(=O)NC(Cc1ccc2ccccc2c1)C(=O)NC1CC1 (stereo not shown)	Calpain	=	7.38
CCC(C)C(NC(=O)C(CC(C)C)NC(=O)C(Cc1ccccc1)NC(=O)Cc1ccncc1)C(=O)C(=O)NC(CCCNC(=N)N)C(N)=O (stereo not shown)	Calpain	=	8.77
CCC(C)C(NC(=O)C(CCC(N)=O)NC(=O)Cc1ccccc1)C(=O)C(=O)NCC(=O)NC(Cc1ccc2ccccc2c1)C(N)=O (stereo not shown)	Calpain	=	7.41
CC(NC(=O)C(Cc1ccccc1)NC(=O)Cc1ccccc1)C(=O)C(=O)NC(CC1CC1)C(=O)NC(Cc1ccc(-c2ccccc2)cc1)C(N)=O (stereo not shown)	Calpain	<	5.00
CCC(C)C(NC(=O)C(CC(C)C)NC(=O)OCc1ccccc1)C(=O)C(=O)NCC(=O)NC(Cc1ccc(OC)cc1)C(N)=O (stereo not shown)	Calpain	=	8.77
CCC(C)C(NC(=O)C(CC(C)C)NC(C)=O)C(=O)C(=O)NCC(=O)NC(Cc1ccc2ccccc2c1)C(N)=O (stereo not shown) [PHELIX307]	Calpain	=	8.58

###

Target: Cat K (Homo sapiens)
Sequence (P43235 115-329): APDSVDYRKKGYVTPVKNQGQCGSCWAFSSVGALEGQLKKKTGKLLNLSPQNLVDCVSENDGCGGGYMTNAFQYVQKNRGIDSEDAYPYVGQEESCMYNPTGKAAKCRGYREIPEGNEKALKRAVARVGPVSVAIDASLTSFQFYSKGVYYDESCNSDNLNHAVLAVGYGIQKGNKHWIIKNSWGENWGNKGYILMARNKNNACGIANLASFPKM
pKi: −log10 of the molar value.
If the reported pKi equals or exceeds 6, assign 1.0. If not, assign 0.0.

COMPOUND	ASSIGNED_CLASS
CC(NC(=O)C(Cc1ccc(F)cc1)NC(=O)Cc1ccccc1)C(=O)C(=O)NC(Cc1ccccc1)C(=O)NC(C)(C)C(N)=O (stereo not shown)	0.0
CC(NC(=O)C(Cc1ccccc1)NC(=O)Cc1ccccc1)C(=O)C(=O)NC(Cc1ccccc1)C(=O)NC(Cc1ccc2ccccc2c1)C(N)=O (stereo not shown) [PHELIX215]	1.0
CC(NC(=O)C(Cc1ccc2ccccc2c1)NC(=O)Cc1ccccc1)C(=O)C(=O)NC(Cc1ccccc1)C(=O)NC(C)(C)C(N)=O (stereo not shown)	0.0
Cc1ccccc1CC(=O)NC(Cc1ccccc1)C(=O)NC(C)C(=O)C(=O)NC(Cc1ccccc1)C(=O)NC(C)(C)C(N)=O (stereo not shown)	0.0
CC(NC(=O)C(Cc1cccc2ccccc12)NC(=O)Cc1ccccc1)C(=O)C(=O)NC(Cc1ccccc1)C(=O)NC(C)(C)C(N)=O (stereo not shown)	0.0
Cc1cccc(CC(=O)NC(Cc2ccccc2)C(=O)NC(C)C(=O)C(=O)NC(Cc2ccccc2)C(=O)NC(C)(C)C(N)=O)c1 (stereo not shown)	1.0
CC(NC(=O)C(Cc1ccccc1)NC(=O)Cc1cccc(F)c1)C(=O)C(=O)NC(Cc1ccccc1)C(=O)NC(C)(C)C(N)=O (stereo not shown)	1.0
CC(NC(=O)C(Cc1ccccc1)NC(=O)Cc1ccccc1)C(=O)C(=O)NC(Cc1ccccc1)C(=O)NC(Cc1ccc(C(C)(C)C)cc1)C(N)=O (stereo not shown)	1.0
CC(C)CC(NC(=O)OCc1ccccc1)C(=O)NC(C)C(=O)C(=O)N1CC(C(=O)NC(Cc2ccccc2)C(N)=O)C1 (stereo not shown)	1.0
CC(NC(=O)C(Cc1ccccc1F)NC(=O)Cc1ccccc1)C(=O)C(=O)NC(Cc1ccccc1)C(=O)NC(C)(C)C(N)=O (stereo not shown)	1.0

###

Molecular target: Cathepsin B (Homo sapiens, UniProt P07858)
Experiment: Cathepsin B enzyme assay
Conditions: Cat B (μM), Ki by Morrison equation; pH 6.0, substrate Z-Phe-Arg-Amc

COMPOUND	Ki
CC(NC(=O)C(Cc1ccccc1)NC(=O)Cc1ccccc1)C(=O)C(=O)NC(Cc1ccccc1)C(=O)NC(Cc1ccc(C(C)(C)C)cc1)C(N)=O (stereo not shown)	3.57 µM
CCC(C)C(NC(=O)C(=O)C(C)NC(=O)C(Cc1ccccc1)NC(=O)Cc1cccc2ccccc12)C(=O)NC(C)(C)C(=O)O (stereo not shown)	0.0485 µM
CC[C@H](C)[C@H](NC(=O)C(=O)C(C)NC(=O)C(Cc1ccccc1)NC(=O)Cc1ccccc1)C(=O)N1CCC[C@H]1C(=O)O (stereo partly shown)	0.0215 µM
CCC(C)C(NC(=O)C(=O)C(C)NC(=O)C(Cc1ccc(C(C)(C)C)cc1)NC(=O)Cc1ccccc1)C(=O)NC(C)(C)C(=O)O (stereo not shown)	0.273 µM
CC(NC(=O)C(Cc1cccc(C(F)(F)F)c1)NC(=O)Cc1ccccc1)C(=O)C(=O)NC(Cc1ccccc1)C(=O)NC(C)(C)C(N)=O (stereo not shown)	0.234 µM
CC(NC(=O)C(Cc1ccccc1)NC(=O)Cc1ccccc1)C(=O)C(=O)N[C@@H](Cc1ccccc1)C(=O)N1CCC[C@H]1C(=O)O (stereo partly shown)	0.0067 µM
CC(NC(=O)C(Cc1ccccc1)NC(=O)Cc1ccccc1)C(=O)C(=O)NC(CC1CC1)C(=O)NC(C)(C)C(=O)O (stereo not shown)	0.0081 µM
CC(C)CC(NC(=O)OCc1ccccc1)C(=O)NC(C)C(=O)C(=O)NCC(=O)NC(Cc1ccccc1)C(=O)NCCc1ccccc1 (stereo not shown)	0.313 µM
CC(C)CC(NC(=O)Cc1ccc(-c2ccccc2)cc1)C(=O)NC(C)C(=O)C(=O)NCC(=O)NC(Cc1ccc2ccccc2c1)C(N)=O (stereo not shown)	1.17 µM
CCCC(NC(=O)C(=O)C(C)NC(=O)C(Cc1ccccc1)NC(=O)Cc1ccccc1)C(=O)NC(C)(C)C(N)=O (stereo not shown)	> 10 µM
